- ASSAYED_SYSTEM: norepinephrine reuptake sites (Rattus norvegicus)
- Sequence (Q63380 1-617): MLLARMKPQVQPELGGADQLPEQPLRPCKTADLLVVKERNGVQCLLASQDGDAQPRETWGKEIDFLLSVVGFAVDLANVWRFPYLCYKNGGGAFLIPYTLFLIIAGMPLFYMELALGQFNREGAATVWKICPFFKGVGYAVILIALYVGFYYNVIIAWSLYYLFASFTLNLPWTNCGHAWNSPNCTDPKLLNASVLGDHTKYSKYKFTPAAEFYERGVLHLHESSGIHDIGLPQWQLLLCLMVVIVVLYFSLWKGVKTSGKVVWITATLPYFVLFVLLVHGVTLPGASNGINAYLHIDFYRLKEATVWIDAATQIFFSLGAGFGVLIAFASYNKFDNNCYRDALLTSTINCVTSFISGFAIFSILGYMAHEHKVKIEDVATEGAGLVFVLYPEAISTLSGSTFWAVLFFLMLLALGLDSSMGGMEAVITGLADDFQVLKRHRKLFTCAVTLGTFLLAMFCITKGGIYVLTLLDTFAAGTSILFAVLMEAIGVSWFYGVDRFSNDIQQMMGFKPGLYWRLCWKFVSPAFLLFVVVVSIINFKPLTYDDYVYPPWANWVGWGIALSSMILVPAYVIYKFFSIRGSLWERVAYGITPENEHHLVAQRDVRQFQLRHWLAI
- PROTOCOL_DETAILS: in vitro competitive binding assay, norepinephrine uptake sites, [3H]-Nisoxetine
- ASSAY_CONTEXT: rat brain tissue preparation
Where a name gives a salt, the structure may show the parent alone.
MEASURED_ATTRIBUTE: IC50

MOLECULE	ASSAYED_SYSTEM	TEST_VALUE
CNCC[C@@H](Oc1cccc(I)c1)c1ccccc1 [Compound 4]	norepinephrine reuptake sites (Rattus norvegicus)	500 nM
CNCC[C@H](Oc1ccc(I)cc1C)c1ccccc1 [Compound 14, hydrochloride]	norepinephrine reuptake sites (Rattus norvegicus)	9 nM
CNCC[C@H](Oc1cccc(I)c1)c1ccccc1 [Compound 11]	norepinephrine reuptake sites (Rattus norvegicus)	7000 nM
CNCC[C@@H](Oc1ccc(I)cc1C)c1ccccc1.Cl [Compound 7, hydrochloride]	norepinephrine reuptake sites (Rattus norvegicus)	20 nM

----------
- ASSAYED_SYSTEM: serotonin reuptake sites (Rattus norvegicus)
- Construct: in rat brain tissue preparation; from tissue
- Sequence (P31652 whole entry): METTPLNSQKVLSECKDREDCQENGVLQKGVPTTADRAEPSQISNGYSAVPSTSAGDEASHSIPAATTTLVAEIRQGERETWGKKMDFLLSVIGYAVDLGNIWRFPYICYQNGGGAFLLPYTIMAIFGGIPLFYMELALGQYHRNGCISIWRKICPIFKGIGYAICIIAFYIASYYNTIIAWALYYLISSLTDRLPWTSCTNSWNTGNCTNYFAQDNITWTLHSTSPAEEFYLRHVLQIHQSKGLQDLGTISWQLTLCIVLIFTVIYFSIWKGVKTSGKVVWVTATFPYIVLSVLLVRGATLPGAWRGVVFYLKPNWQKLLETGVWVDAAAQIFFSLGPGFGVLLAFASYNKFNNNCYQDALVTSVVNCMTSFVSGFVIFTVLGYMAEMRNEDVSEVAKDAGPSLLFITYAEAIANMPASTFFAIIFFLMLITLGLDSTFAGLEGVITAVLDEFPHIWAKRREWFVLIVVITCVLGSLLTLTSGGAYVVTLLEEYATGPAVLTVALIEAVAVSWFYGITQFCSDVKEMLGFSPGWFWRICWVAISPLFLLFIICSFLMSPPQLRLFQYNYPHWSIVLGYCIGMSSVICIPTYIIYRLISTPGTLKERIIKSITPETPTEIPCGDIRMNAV
- PROTOCOL_DETAILS: in vitro competitive binding assay, serotonin uptake sites, [3H]-Paroxetine
Counter-ions that a name gives are not always drawn.
The entries below are paired with their reported Ki.

COMPOUND	Ki / pM
CNCC[C@@H](Oc1cccc(I)c1)c1ccccc1	800
CNCC[C@H](Oc1ccc(I)cc1C)c1ccccc1 [Compound 14, hydrochloride]	800
CNCC[C@@H](Oc1ccc(I)cc1C)c1ccccc1.Cl [Compound 7, hydrochloride]	5000
